# protocol.description: Aqueous solubility
# Assay type: physicochemical
# study.conditions: aqueous medium, pH 2, aqueous buffer, thermodynamic from solid, pH 2

# compound, solubility
records = [
    ("Cc1cc(C(=O)Nc2cc(Nc3ccc4c(/C=C/c5ccccn5)n[nH]c4c3)ccc2F)n(C)n1 [Form V]", "~8 µg/mL"),
]

###

# protocol.description: Aqueous solubility
# Assay type: physicochemical
# study.conditions: aqueous medium, pH 2, pH 2, aqueous buffer, thermodynamic from solid, pH 2

# compound, solubility
rows = [
    ("Cc1cc(C(=O)Nc2cc(Nc3ccc4c(/C=C/c5ccccn5)n[nH]c4c3)ccc2F)n(C)n1 [Form I]", "~39 µg/mL"),
    ("Cc1cc(C(=O)Nc2cc(Nc3ccc4c(/C=C/c5ccccn5)n[nH]c4c3)ccc2F)n(C)n1 [Form IV]", "~7 µg/mL"),
]

###

# protocol.description: Aqueous solubility
# Assay type: physicochemical
# study.conditions: aqueous medium at pH 2, pH 2, aqueous buffer, thermodynamic from solid, pH 2
# Description: […]
measurement.kind: solubility

# molecule, result
data = [
    ("Cc1cc(C(=O)Nc2cc(Nc3ccc4c(/C=C/c5ccccn5)n[nH]c4c3)ccc2F)n(C)n1 [Form II]", "~19 µg/mL"),
]

###

# protocol.description: Aqueous solubility
# Type: physicochemical
# study.conditions: aqueous medium at pH 7.4, pH 7.4, aqueous buffer, thermodynamic from solid, pH 7.4

# molecule, solubility
rows = [
    ("Cc1cc(C(=O)Nc2cc(Nc3ccc4c(/C=C/c5ccccn5)n[nH]c4c3)ccc2F)n(C)n1 [Form II]", "~0.7 µg/mL"),
]
